- Reported conditions: in n-propanol, 273.15 K
Value type: solubility (mole fraction)

solubility (mole fraction) for CC(=O)Oc1ccccc1C(=O)Nc1ncc([N+](=O)[O-])s1 is 0.000138

----------
- Reported conditions: in ethanol, 283.15 K
Value type: solubility (mole fraction)

solubility (mole fraction) for CC(=O)Oc1ccccc1C(=O)Nc1ncc([N+](=O)[O-])s1 is 0.000179

----------
- Reported conditions: in 2-butanone, 298.15 K
Value type: solubility (mole fraction)
Give bare numbers.

solubility (mole fraction) for CC(=O)Oc1ccccc1C(=O)Nc1ncc([N+](=O)[O-])s1 is 0.0131

----------
- Reported conditions: in methanol, 298.15 K
Value type: solubility (mole fraction)
Give bare numbers.

solubility (mole fraction) for CC(=O)Oc1ccccc1C(=O)Nc1ncc([N+](=O)[O-])s1 is 0.00023

----------
- Reported conditions: in isopropanol, 273.15 K
Value type: solubility (mole fraction)
Numbers only.

solubility (mole fraction) for CC(=O)Oc1ccccc1C(=O)Nc1ncc([N+](=O)[O-])s1 is 0.000162

----------
- Reported conditions: in isopropanol, 308.15 K
Value type: solubility (mole fraction)

solubility (mole fraction) for CC(=O)Oc1ccccc1C(=O)Nc1ncc([N+](=O)[O-])s1 is 0.000502

----------
- Reported conditions: in n-butanol, 273.15 K
Value type: solubility (mole fraction)
Give bare numbers.

solubility (mole fraction) for CC(=O)Oc1ccccc1C(=O)Nc1ncc([N+](=O)[O-])s1 is 0.000176

----------
- Reported conditions: in DMF, 273.15 K
Value type: solubility (mole fraction)
One number for each entry.

solubility (mole fraction) for CC(=O)Oc1ccccc1C(=O)Nc1ncc([N+](=O)[O-])s1 is 0.0637

----------
- Reported conditions: in ethanol, 278.15 K
Value type: solubility (mole fraction)
Numbers only.

solubility (mole fraction) for CC(=O)Oc1ccccc1C(=O)Nc1ncc([N+](=O)[O-])s1 is 0.000147

----------
- Reported conditions: in 2-butanone, 278.15 K
Value type: solubility (mole fraction)
Answers are plain numbers.

solubility (mole fraction) for CC(=O)Oc1ccccc1C(=O)Nc1ncc([N+](=O)[O-])s1 is 0.00496

----------
- Reported conditions: in 1,4-dioxane, 293.15 K
Value type: solubility (mole fraction)
Give bare numbers.

solubility (mole fraction) for CC(=O)Oc1ccccc1C(=O)Nc1ncc([N+](=O)[O-])s1 is 0.0131

----------
- Reported conditions: in acetonitrile, 298.15 K
Value type: solubility (mole fraction)
Answers are plain numbers.

solubility (mole fraction) for CC(=O)Oc1ccccc1C(=O)Nc1ncc([N+](=O)[O-])s1 is 0.00141

----------
- Reported conditions: in NMP, 283.15 K
Value type: solubility (mole fraction)

solubility (mole fraction) for CC(=O)Oc1ccccc1C(=O)Nc1ncc([N+](=O)[O-])s1 is 0.0925

----------
- Reported conditions: in NMP, 288.15 K
Value type: solubility (mole fraction)
One number for each entry.

solubility (mole fraction) for CC(=O)Oc1ccccc1C(=O)Nc1ncc([N+](=O)[O-])s1 is 0.0953

----------
- Reported conditions: in DMF, 283.15 K
Value type: solubility (mole fraction)
One number for each entry.

solubility (mole fraction) for CC(=O)Oc1ccccc1C(=O)Nc1ncc([N+](=O)[O-])s1 is 0.0711

----------
- Reported conditions: in toluene, 303.15 K
Value type: solubility (mole fraction)
Give bare numbers.

solubility (mole fraction) for CC(=O)Oc1ccccc1C(=O)Nc1ncc([N+](=O)[O-])s1 is 0.000225
